Tested on: HL-60(TB) leukemia
experiment-notes: NCI tumour cell line growth inhibition, 48 h
metric: TGI

O=c1c2n[nH]nc2nc2n1CC(c1ccccc1)S2 (stereo unspecified) | > 100 µM
Cc1c/c(=N/NC(=O)c2ccncc2)n2nc(N)sc2n1 | > 100 µM
O=S(=O)(Oc1ccc2ccccc2c1-c1c(OS(=O)(=O)C(F)(F)F)ccc2ccccc12)C(F)(F)F | > 100 µM
Cc1ccc2nc3c(C)cc(=O)cc-3sc2c1 | 25.2 µM
COC(CC1(OC)OC(=O)C=C1N)OC (stereo unspecified) | > 100 µM
CC(=O)OCC1OC(Oc2cc(C)c(O)cc2C/C=C(\C)CC/C=C(\C)C[C@@H](C=C(C)C)OC(C)=O)C(O)C(OC(C)=O)C1OC(C)=O (stereo partly specified) | 21 µM
CCOC(=O)Nc1cc2c(c(N)n1)N=C(c1ccc3ccccc3c1)CN2 | > 100 µM
Cn1cnc2c1c(=O)n(CCNCCO)c(=O)n2C | > 100 µM
COc1cc(/C=C/c2ccccn2)cc(OC)c1OC | > 10 µM
Nc1c(Br)cc(-c2nc3ccccc3s2)cc1Br | > 100 µM
Cc1cc2c(cc1Cl)N1C(=O)NS(=O)(=O)N=C1NS2(=O)=O | > 100 µM
CC1CC(c2ccc(Cl)c(Cl)c2)=Nc2ccccc2S1 (stereo unspecified) | > 100 µM
N=C1C(c2nc3ccccc3s2)=C(O)CN1c1cc(Cl)cc(Cl)c1 | > 100 µM
COC(=O)/C=C1\CCCN1CCc1cc2c(cc1CC#N)OCO2 | > 100 µM
CNCCNc1nc2ccccc2c2c(=O)c3cccc(C)c3sc12 | 2.2 µM
O=C(c1ccccc1)N1CCC(Nc2nccs2)O1 (stereo unspecified) | > 10 µM
c1ccc2c3nnc(c2c1)SCCCSc1nnc(c2ccccc12)SCCCS3 | > 100 µM
CC(NC(=O)OC(C)(C)C)C(=O)NC(Cc1ccccc1)C(=O)NCC(=O)Oc1c(Cl)c(Cl)c(Cl)c(Cl)c1Cl (stereo unspecified) | 53.3 µM
c1cc2c(c(NC3=NCCN3)c1)CCCC2 | > 100 µM
CCn1c(O)c(C=Nc2ccccc2)s/c1=N/Nc1nc(-c2ccc(O)c(O)c2)cs1 | 6.04 µM
CC(C)[C@H](C(=O)O[C@@H]1/C=C/C(=O)O[C@@H](C)CCC/C=C/[C@@H]2C[C@H](O)C[C@H]21)N(C)C | 50.7 µM

====

Below, each entry is listed with its recorded TGI.
Tested on: U251 CNS
experiment-notes: NCI tumour cell line growth inhibition, 48 h
metric: TGI

CNCCN(C)Cc1cn[nH]c1-c1ccc(OC2CC(OCCC3CCOCC3)C2)cc1 (stereo not given) | > 100 µM
Cc1cc2cc3ccccc3cc2c(=O)[nH]1 | > 10 µM
CC1OC(OCC2OC(Oc3ccc(C4CC(=O)c5c(O)cc(O)cc5O4)cc3O)C(O)C(O)C2O)C(O)C(O)C1O (stereo not given) | > 100 µM
Cn1cnc([N+](=O)[O-])c1Sc1nc2ccc([N+](=O)[O-])cc2[nH]1 | > 100 µM
CC(C)[C@H](C(=O)O[C@@H]1/C=C/C(=O)O[C@@H](C)CCC/C=C/[C@@H]2C[C@H](O)C[C@H]21)N(C)C | > 100 µM

====

Reported GI50 values are given for each entry in this list.
System: NCI-H522 lung
experiment-notes: NCI tumour cell line growth inhibition, 48 h
metric: GI50

COc1ccc(-c2nc3sccn3c2-c2ccnc(NCCCNS(=O)(=O)c3ccc(F)cc3)n2)cc1 | 1.41 µM
CNCCN(C)Cc1cn[nH]c1-c1ccc(OC2CC(OCCC3CCOCC3)C2)cc1 (stereo unspecified) | > 100 µM
Fc1ccc(C2C3CCOc4c(ccc5ccccc45)C3=NN2c2ccccc2)cc1 (stereo unspecified) | > 100 µM
CCOC(=O)c1cc(-c2ccccc2)[nH]c1N/N=C/c1c(Cl)cccc1Cl | 0.701 µM
CCCc1n(Cc2ccc3ccccc3n2)cc[n+]1Cc1ccc2ccccc2n1 | 0.438 µM
Cc1cc2c(cc1Cl)N1C(=O)NS(=O)(=O)N=C1NS2(=O)=O | > 100 µM

====

System: ACHN renal
experiment-notes: NCI tumour cell line growth inhibition, 48 h
Reported TGI values for a set of compounds
metric: TGI

O=C1OC2(OC2c2ccc(Cl)cc2)c2ccccc21 (stereo unspecified) | > 100 µM
O=C1c2ccccc2C(=O)c2c1ccc1c2N=C(c2ccc(Br)cc2)CC(c2cccc3ccccc23)N1 (stereo unspecified) | > 100 µM
CC1COCCN1CC#CCOC(=O)c1cc2ccccc2oc1=O (stereo unspecified) | > 100 µM
CCc1ccc([O-])c(C=NCCCN(C)CCCN=Cc2cc(C)ccc2[O-])c1.[Co+3].[N-]=[N+]=[N-] | 50 µg/mL
CC(C)(C)OC(=O)NC(CS(=O)(=O)O)C(=O)O (stereo unspecified) | > 100 µM
COC(=O)C(/C(=N/N)C(=O)Nc1cccc(O)c1)c1nc2ccccc2[nH]c1=O (stereo unspecified) | > 100 µM

====

System: IGROV1 ovarian
experiment-notes: NCI tumour cell line growth inhibition, 48 h
metric: TGI

CCOP(=O)(OCC)C(Nc1cccc(F)c1)c1ccc(N(C)C)cc1 (stereo not drawn) | > 100 µM
C[C@H](c1ccccc1)N(CCC(=O)O)C(=O)CCN(C(=O)CCN(C(=O)CCN[C@H](C)c1ccccc1)[C@H](C)c1ccccc1)[C@H](C)c1ccccc1 | > 100 µM
COc1c2ccccc2c(O)c2c(=O)ccn(C)c12 | > 100 µM

====

Entries and their measured TGI follow.
System: HCC-2998 colon
experiment-notes: NCI tumour cell line growth inhibition, 48 h
metric: TGI

COC(=O)C1=C(\O)C[C@@]2(C)CC[C@@H](C(=O)OC)C2C/C=C\1C(=O)OC (stereo partly specified) | > 100 µM
O=C(Nc1ccccc1)Nc1ccc(Cl)c(Cl)c1 | > 100 µM
O=C(CSc1nc2ccc(I)cc2c(=O)n1Cc1ccccc1)NN1C(=O)c2ccccc2C1=O | > 100 µM
CC(=O)N(CCCCNC(=O)C(F)(F)F)CCCNC(=O)C(F)(F)F | > 100 µM
Cc1[nH]n(-c2ccccc2)c(=O)c1C(N(CCc1ccccc1)C1=NCC(C)S1)(C(F)(F)F)C(F)(F)F (stereo unspecified) | 34 µM
COC(=O)N/N=C(\c1ccccc1)c1ccc(OC)cc1 | > 100 µM

====

Tested on: MCF7 breast
experiment-notes: NCI tumour cell line growth inhibition, 48 h
metric: TGI

COc1ccc(C(=C2C(=O)N(c3ccccc3)C(=O)C2=C(C)C)c2ccc(OC)cc2)cc1 | > 45.4 µM
O=C(NC(Cc1ccc(I)cc1)C(=O)O)c1ccc(Cl)cc1 (stereo not drawn) | > 100 µM
Cn1cnc2c1c(=O)n(CCNCCO)c(=O)n2C | > 100 µM
COc1cc([N+](=O)[O-])ccc1N1C(=O)C2c3[nH]c4ccccc4c3C3CCC(C(C)(C)C)CC3C2C1=O (stereo not drawn) | > 100 µM
CC1COCCN1CC#CCOC(=O)c1cc2ccccc2oc1=O (stereo not drawn) | > 100 µM
CCCc1n(Cc2ccc3ccccc3n2)cc[n+]1Cc1ccc2ccccc2n1 | 11.9 µM
COc1ccc(/C=C2\N=C(c3ccccc3)OC2=O)cc1OC(C)=O | > 100 µM
NCCNCCNc1ccc(NCCNCCN)c2c1C(=O)c1c(O)ccc(O)c1C2=O | > 100 µM
N=C1C(c2nc3ccccc3s2)=C(O)CN1c1cc(Cl)cc(Cl)c1 | > 100 µM
Nc1nc(OCC2CCCCC2)c2[nH]cnc2n1 | > 100 µM
COc1ccc2c(c1)N(CCO)C1=C(C(=O)OC1)C2c1ccc(OC)c(OC)c1 (stereo not drawn) | > 100 µM
FC(F)(F)c1ccc(NCc2nc3ccccc3[nH]2)cc1 | 53.2 µM
CSc1nc(Br)nc2ncn(C3CC(Oc4ccc(C)cc4)C(COc4ccc(C)cc4)O3)c12 (stereo not drawn) | > 100 µM
COC(=O)C(/C(=N/N)C(=O)Nc1cccc(O)c1)c1nc2ccccc2[nH]c1=O (stereo not drawn) | > 100 µM
O=C(N/N=C/c1ccc(Cl)cc1)c1ccccc1Nc1ccccc1C(=O)N/N=C/c1ccc(Cl)cc1 | > 100 µM
COc1c2ccccc2c(O)c2c(=O)ccn(C)c12 | 11.3 µM
Cc1cc(-c2cscn2)c(O)c([N+](=O)[O-])c1 | > 100 µM
Cc1cc2cc3ccccc3cc2c(=O)[nH]1 | > 10 µM
NNc1ncc2c(n1)-c1ccccc1OC2 | > 100 µM
Cc1ccc([N+](=O)[O-])cc1S(=O)(=O)Nc1ccc(C2=NOC(c3ccccc3O)C2)cc1 (stereo not drawn) | 14 µM
CCOC(=O)Nc1cc2c(c(N)n1)N=C(c1ccc3ccccc3c1)CN2 | > 100 µM
O=c1[nH]c(SCc2ccccc2[N+](=O)[O-])nc2nc[nH]c12 | > 100 µM
COc1ccc2c(c1)CCc1c-2n(CCN2CCOCC2)c2ccc(OC)cc12 | > 100 µM
CC(C)[C@H](C(=O)O[C@@H]1/C=C/C(=O)O[C@@H](C)CCC/C=C/[C@@H]2C[C@H](O)C[C@H]21)N(C)C | 28.1 µM
CCCCCCSc1nc(COC(=O)NC)c(COC(=O)NC)n1C | > 100 µM
c1c2c(cc3c1OCO3)-c1cc3ccc4c(c3c[n+]1CC2)OCO4 | > 12.5 µM
Cc1c(N=Nc2ccc(Cl)cc2)c(C)n(C2OC(CO)C(O)C(O)C2O)c(=S)c1C#N (stereo not drawn) | > 100 µM
O=S(=O)(Oc1ccc2ccccc2c1-c1c(OS(=O)(=O)C(F)(F)F)ccc2ccccc12)C(F)(F)F | > 100 µM
